Test: Oral bioavailability in Wistar-Han rat at 2 mg/kg
Type: ADME, organism-based
Conditions: in vivo
MEASURED_PROPERTY: bioavailability

>  <CPD_SMILES>
COc1cccc2[nH]c(C(=O)N[C@@H](CC(C)C)C(=O)N[C@@H](C[C@@H]3CCNC3=O)C(=O)CO)cc12

>  <MEASURED_PROPERTY>
bioavailability

>  <TEST_RESULT>
< 2%

$$$$

---

Target: Replicase polyprotein 1ab (Severe acute respiratory syndrome coronavirus 2)
Experiment: Inhibition of wild type recombinant SARS-CoV-2 3CLpro (1 to 306 residues) expressed in Escherichia coli (DE3) competent cells using CP488-ESATLQSGLRKAK-(CPQ2)-NH2 as substrate preincubated for 30 mins followed by substrate addition and measured after 4 hrs by FRET assay
pIC50: −log10 of the molar value.
Recorded pIC50 for the following molecules

>  <MOLECULE>
CC(C)(C)CC(=O)N1CC2(CCCCC2)C[C@H]1C(=O)N[C@@H](CCC(C)(F)F)C(=O)C(=O)NC1CC1

>  <SYSTEM>
Replicase polyprotein 1ab (Severe acute respiratory syndrome coronavirus 2)

>  <pIC50>
6.05

$$$$
>  <MOLECULE>
COC(=O)N[C@H](C(=O)N1CC2(CCC(F)(F)CC2)C[C@H]1C(=O)N[C@@H](CCC(C)(F)F)C(=O)C(=O)NC1CC1)C(C)(C)C

>  <SYSTEM>
Replicase polyprotein 1ab (Severe acute respiratory syndrome coronavirus 2)

>  <pIC50>
6.57

$$$$
>  <MOLECULE>
CC(F)(F)CC[C@H](NC(=O)[C@@H]1CC2(CCCCC2)CN1C(=O)C(O)c1cccc(F)c1)C(=O)C(=O)NC1CC1 (some centres undefined)

>  <SYSTEM>
Replicase polyprotein 1ab (Severe acute respiratory syndrome coronavirus 2)

>  <pIC50>
7.25

$$$$
>  <MOLECULE>
COC(=O)N[C@H](C(=O)N1C[C@@H]2CCC[C@@H]2[C@H]1C(=O)N[C@@H](CC[C@H](C)F)C(=O)C(=O)NC1CC1)C(C)(C)C

>  <SYSTEM>
Replicase polyprotein 1ab (Severe acute respiratory syndrome coronavirus 2)

>  <pIC50>
7.64

$$$$
>  <MOLECULE>
CC(F)(F)CC[C@H](NC(=O)[C@@H]1CC2(CCCCC2)CN1C(=O)[C@@H](NC(=O)OCc1ccccc1)C1CCCCC1)C(=O)C(=O)NC1CC1

>  <SYSTEM>
Replicase polyprotein 1ab (Severe acute respiratory syndrome coronavirus 2)

>  <pIC50>
7.80

$$$$
>  <MOLECULE>
COC(=O)N[C@H](C(=O)N1CC2(CCCCC2)C[C@H]1C(=O)N[C@@H](CC1CC1(F)F)C(=O)C(=O)NC1CC1)C(C)(C)C (some centres undefined)

>  <SYSTEM>
Replicase polyprotein 1ab (Severe acute respiratory syndrome coronavirus 2)

>  <pIC50>
6.45

$$$$
>  <MOLECULE>
COC(=O)N[C@H](C(=O)N1CC2(CCCCC2)C[C@H]1C(=O)N[C@@H](CCC(C)(F)F)C(=O)C(N)=O)C(C)(C)C

>  <SYSTEM>
Replicase polyprotein 1ab (Severe acute respiratory syndrome coronavirus 2)

>  <pIC50>
7.60

$$$$
>  <MOLECULE>
COC(=O)N[C@H](C(=O)N1C[C@@H]2CCC[C@@H]2[C@H]1C(=O)N[C@@H](CC[C@@H](C)F)C(=O)C(=O)NC1CC1)C(C)(C)C

>  <SYSTEM>
Replicase polyprotein 1ab (Severe acute respiratory syndrome coronavirus 2)

>  <pIC50>
7.96

$$$$
>  <MOLECULE>
COC(=O)N[C@H](C(=O)N1CC2(CCCCC2)C[C@H]1C(=O)N[C@@H](CCC(C)(F)F)C(=O)C(=O)NC1CC1)C(C)(C)C

>  <SYSTEM>
Replicase polyprotein 1ab (Severe acute respiratory syndrome coronavirus 2)

>  <pIC50>
7.96

$$$$
